Tested on: MILI (PIWIL2) piRISC loaded with L1MC piRNA (26 nt);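 further: 1 nM active piRISC with 0.1 nM target library at 33 °C single turnover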
Assay: pre-steady-state target cleavage rate (min^-1); guide: L1MC piRNA 5'p-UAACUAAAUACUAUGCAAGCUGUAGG; higher = faster piRNA-guided slicing of the target
Conditions: auxiliary factor: 500 nM mouse GTSF1
Use MET when the recorded pre-steady-state target cleavage rate is no lower than 0.04; use NOT MET when it is lower.

Use the examples below as a reference point.
UCCUGCUUGUGCUUGCAUAGUAUUUACAAA : NOT MET
UCCUGGAACAGCUUGCAUAGUUAUUUAGUUA : NOT MET
UCCUGGAUGUGCUUGGAAAGUAUUUAGUUA : NOT MET
UCCUGCUACAGCUUGCUUAGUAUUUAGUUA : MET
UCCUGGAUCAGCUUGGAUAGUAUUUAGAAA : NOT MET

**Query** Item UCCUGGAUGUCGAUGCAUAGUAUUUAGCUUA with pre-steady-state target cleavage rate of 0.04 or above?
**Result** MET

**Query** Item UCCUGGAUGUCCUUGCAUAGUAUUUUGAUA with pre-steady-state target cleavage rate of 0.04 or above?
**Result** NOT MET

* * *

Tested on: MILI (PIWIL2) piRISC loaded with L1MC piRNA (26 nt);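 further: 1 nM active piRISC with 0.1 nM target library at 33 °C single turnover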
Assay: pre-steady-state target cleavage rate (min^-1); guide: L1MC piRNA 5'p-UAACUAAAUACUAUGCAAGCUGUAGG; higher = faster piRNA-guided slicing of the target
Settings: auxiliary factor: 500 nM mouse GTSF1
Would you mind classing the entries by pre-steady-state target cleavage rate? Ranges: low bracket (below 0.07), middle bracket (0.07 to below 0.2), high bracket (0.2 or more)

Use the examples below as a reference point.
UCCUGCUACAGCUUGGAUAGUAUUUAGUUA : high bracket
UCCUCCUACAGCUUGCAUAGCAUUUAGUUA : middle bracket
UCCUGGAUGUGCUAGGAUAGUAUUUAGUUA : middle bracket
UCCUGGAUCAGCUUCCUUAGUAUUUAGUUA : middle bracket
UCCUGGAUGUGCUUGCAAAGUAUUUUGUUA : low bracket
UCCUGCUACAGGUUGCAUAGUAUUUAGAUA : middle bracket

**Query** Band of UCCUGGAUGUCCUUGCAUUGUAUUUAGUUA ?
**Result** low bracket

**Query** Band of UCCUGGAUGUCGUUGCAUAGUUAUUUAGUUA ?
**Result** low bracket

**Query** Band of UCCUGGAUGUCGUUGCAUAGUAUAUAGUAA ?
**Result** low bracket

**Query** Band of UCCUGGAUGUCGUUGCAUAGUAAUUAGUUA ?
**Result** middle bracket

**Query** Band of UCCUGGAUCAGCUUGGAUAGUAUUUUGUUA ?
**Result** middle bracket

**Query** Band of UCCUGCUACAGCAUGCAUAGUAUUAAGUUA ?
**Result** high bracket

* * *

System: MILI (PIWIL2) piRISC loaded with L1MC piRNA (26 nt);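 further: 1 nM active piRISC with 0.1 nM target library at 33 °C single turnover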
Assay: pre-steady-state target cleavage rate (min^-1); guide: L1MC piRNA 5'p-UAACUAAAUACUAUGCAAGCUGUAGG; MIWI and MILI are mouse PIWI proteins and EfPiwi is from a freshwater sponge; tags in brackets are library labels; higher = faster piRNA-guided slicing of the target
Settings: auxiliary factor: 500 nM mouse GTSF1
Use class 1 when the recorded pre-steady-state target cleavage rate is no lower than 0.1; use class 0 when it is lower.

Use the examples below as a reference point.
UCCUCCUACAGCUAGCAUUGUAUUUAGUUA : class 1
UCCUCAUACAGCUUGCAUAGUAUUUAGUUA : class 1
UCCUGCUACAGCUUGCUUAGUAUUUAGAAA : class 0
UCCUGGUACAGCUUGCAUAGUAUUCUAGUUA : class 1

**Query** Item UCCUGGUACAGCUUCGAUAGUAUUUAGUUA with pre-steady-state target cleavage rate of 0.1 or above?
**Result** class 1

**Query** Item UCCUCCAUCAGCUUGCAUAGUAUUUAGUAA with pre-steady-state target cleavage rate of 0.1 or above?
**Result** class 1

**Query** Item UCCUGGUACAGCUUGCAUAGUAUUUAGUGUA with pre-steady-state target cleavage rate of 0.1 or above?
**Result** class 1

**Query** Item UCCUGGAUGUCGAACGUUAGUAUUUAGUA with pre-steady-state target cleavage rate of 0.1 or above?
**Result** class 0

**Query** Item UCCUCCUACAGCUUGCAUAGUAUCUAGUUA with pre-steady-state target cleavage rate of 0.1 or above?
**Result** class 1
